System: HCV replicon cells
Assay Remarks: HCV replicon FRET / luciferase assay (96-well plates)
Assay type: cell-based
Condition Set: Hepatitis C virus, Table 1a; HCV replicon; read-out: EC50
pEC50: −log10 of the molar value.
Consider the following compounds and their measured pEC50 readings.

>  <Entry Smiles>
CCCNC(=O)c1cccc(-c2ccc3oc(-c4ccc(F)cc4)c(C(=O)NC)c3c2)c1

>  <pEC50>
> 6.60

$$$$
>  <Entry Smiles>
CNC(=O)c1c(-c2ccc(F)cc2)oc2ccc(-c3cccc(C(=O)N[C@@H](CO)C(C)(C)C)c3)cc12

>  <pEC50>
5.00 to 6.00

$$$$
>  <Entry Smiles>
CNC(=O)c1c(-c2ccc(F)cc2)oc2ccc(-c3cc(C)c(Br)cc3C)cc12

>  <pEC50>
< 5.43

$$$$
>  <Entry Smiles>
CNC(=O)c1c(-c2ccc(F)cc2)oc2ccc(-c3cccc(C(=O)NC(CO)CO)c3)cc12

>  <pEC50>
< 5.00

$$$$
>  <Entry Smiles>
CNC(=O)c1c(-c2ccc(F)cc2)oc2cc([N+](=O)[O-])c(-c3cccc(C(=O)NC4(c5ccccc5)CC4)c3)cc12

>  <pEC50>
> 6.60

$$$$
>  <Entry Smiles>
CNC(=O)c1c(-c2ccc(F)cc2)oc2ccc(-c3cccc(C(=O)N[C@@H](C)C(=O)NC)c3)cc12

>  <pEC50>
5.00 to 6.00

$$$$

----------
Test Target: HCV NS5B RdRp genotype 1b (Hepatitis C virus genotype 1b, UniProt Q9WMX2)
Construct: The protein was expressed with an 18 amino acid C-terminal truncation to enhance the solubility; made in house; host or cells: E. coli BL21(DE3), pET21a vector
Sequence (Q9WMX2 2420-2992): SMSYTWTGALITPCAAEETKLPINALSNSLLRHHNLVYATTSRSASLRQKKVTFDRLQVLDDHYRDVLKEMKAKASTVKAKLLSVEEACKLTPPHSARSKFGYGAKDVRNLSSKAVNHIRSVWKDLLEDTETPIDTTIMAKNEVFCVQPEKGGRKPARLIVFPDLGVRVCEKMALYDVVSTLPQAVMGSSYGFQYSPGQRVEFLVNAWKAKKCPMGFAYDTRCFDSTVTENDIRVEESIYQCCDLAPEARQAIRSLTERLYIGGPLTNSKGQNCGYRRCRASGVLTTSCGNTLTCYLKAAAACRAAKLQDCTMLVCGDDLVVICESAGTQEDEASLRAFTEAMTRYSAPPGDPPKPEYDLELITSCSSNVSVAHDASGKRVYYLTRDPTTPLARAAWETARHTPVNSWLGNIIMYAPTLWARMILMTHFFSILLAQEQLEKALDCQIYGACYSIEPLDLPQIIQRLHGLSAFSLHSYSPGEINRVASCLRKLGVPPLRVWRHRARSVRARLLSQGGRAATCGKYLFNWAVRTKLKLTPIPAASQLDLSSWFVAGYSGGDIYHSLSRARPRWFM
Assay Remarks: Standard HCV NS5B RdRp enzyme assay
Format: biochemical
Condition Set: untitled table after Table 1b; HCV NS5B RdRp genotype 1b; read-out: IC50

>  <Compound>
CNC(=O)c1c(-c2ccc(F)cc2)oc2ccc(-c3cc(C(=O)NC4(c5ccccc5)CC4)ccc3F)cc12 [drawing 609]

>  <Censoring Operator>
=

>  <IC50 / nM>
20

$$$$
>  <Compound>
CNC(=O)c1c(-c2ccc(F)cc2)oc2ccc(-c3cccc(C(=O)N4CC[C@H](NC(C)=O)C4)c3)cc12 [drawing 622]

>  <Censoring Operator>
=

>  <IC50 / nM>
7130

$$$$
>  <Compound>
CNC(=O)c1c(-c2ccc(F)cc2)oc2ccc(-c3cc(C(=O)NC4(c5ncccn5)CC4)ccc3C)cc12 [drawing 599]

>  <Censoring Operator>
<

>  <IC50 / nM>
20

$$$$
>  <Compound>
CNC(=O)c1c(-c2ccc(F)cc2)oc2ccc(-c3cc(C(=O)NC4(c5ccccn5)CC4)ccc3Cl)cc12 [drawing 605]

>  <Censoring Operator>
=

>  <IC50 / nM>
10

$$$$

----------
Test Target: HCV NS5B RdRp genotype 1b (Hepatitis C virus genotype 1b)
Construct: The protein was expressed with an 18 amino acid C-terminal truncation to enhance the solubility; made in house; host or cells: E. coli BL21(DE3), pET21a vector
Assay Remarks: Standard HCV NS5B RdRp enzyme assay
Assay type: biochemical
Condition Set: Table 1a; HCV NS5B RdRp genotype 1b; read-out: IC50
pIC50: −log10 of the molar value.
Consider the following compounds and their measured pIC50 readings.

>  <Compound>
CCCNC(=O)c1cccc(-c2ccc3oc(-c4ccc(F)cc4)c(C(=O)NC)c3c2)c1

>  <Test Target>
HCV NS5B RdRp genotype 1b (Hepatitis C virus genotype 1b)

>  <pIC50>
> 6.60

$$$$
>  <Compound>
CNC(=O)c1c(-c2ccc(F)cc2)oc2ccc(-c3cccc(C(=O)NCCC#N)c3)cc12

>  <Test Target>
HCV NS5B RdRp genotype 1b (Hepatitis C virus genotype 1b)

>  <pIC50>
6.00 to 6.60

$$$$
>  <Compound>
CCCC(CCC)NC(=O)c1cccc(-c2ccc3oc(-c4ccc(F)cc4)c(C(=O)NC)c3c2)c1

>  <Test Target>
HCV NS5B RdRp genotype 1b (Hepatitis C virus genotype 1b)

>  <pIC50>
< 6.40

$$$$
>  <Compound>
CNC(=O)c1c(-c2ccc(F)cc2)oc2ccc(-c3ccc(C(=O)NCCc4ccc(F)cc4)cc3)cc12

>  <Test Target>
HCV NS5B RdRp genotype 1b (Hepatitis C virus genotype 1b)

>  <pIC50>
< 5.00

$$$$
>  <Compound>
CNC(=O)c1c(-c2ccc(F)cc2)oc2cc(N)c(-c3cccc(C(=O)NC(C)(C)c4ccccc4)c3)cc12 [drawing 94]

>  <Test Target>
HCV NS5B RdRp genotype 1b (Hepatitis C virus genotype 1b)

>  <pIC50>
> 6.60

$$$$
>  <Compound>
CNC(=O)c1c(-c2ccc(F)cc2)oc2ccc(-c3cccc(C(=O)O)c3)cc12

>  <Test Target>
HCV NS5B RdRp genotype 1b (Hepatitis C virus genotype 1b)

>  <pIC50>
5.00 to 6.00

$$$$
>  <Compound>
CNC(=O)c1c(-c2ccc(F)cc2)oc2ccc(-c3cccc(C(=O)N[C@@H](C)C(=O)OC)c3)cc12

>  <Test Target>
HCV NS5B RdRp genotype 1b (Hepatitis C virus genotype 1b)

>  <pIC50>
> 6.60

$$$$
>  <Compound>
CNC(=O)c1c(-c2ccc(F)cc2)oc2ccc(-c3cccc(S(=O)(=O)N4CCOCC4)c3)cc12

>  <Test Target>
HCV NS5B RdRp genotype 1b (Hepatitis C virus genotype 1b)

>  <pIC50>
< 5.00

$$$$
>  <Compound>
CNC(=O)c1c(-c2ccc(F)cc2)oc2ccc(-c3cccc(/C=C/C(=O)O)c3)cc12

>  <Test Target>
HCV NS5B RdRp genotype 1b (Hepatitis C virus genotype 1b)

>  <pIC50>
6.00 to 6.60

$$$$
>  <Compound>
CNC(=O)c1c(-c2ccc(F)cc2)oc2ccc(-c3cccc(C(=O)NCc4ccc(F)cc4)c3)cc12

>  <Test Target>
HCV NS5B RdRp genotype 1b (Hepatitis C virus genotype 1b)

>  <pIC50>
> 6.60

$$$$
>  <Compound>
CNC(=O)c1c(-c2ccc(F)cc2)oc2ccc(-c3cccc(C(=O)NC(C)CC(=O)O)c3)cc12 (centres unmarked)

>  <Test Target>
HCV NS5B RdRp genotype 1b (Hepatitis C virus genotype 1b)

>  <pIC50>
6.00 to 6.60

$$$$
>  <Compound>
CNC(=O)c1c(-c2ccc(F)cc2)oc2ccc(-c3cccc(C(=O)NCc4ccccc4N)c3)cc12

>  <Test Target>
HCV NS5B RdRp genotype 1b (Hepatitis C virus genotype 1b)

>  <pIC50>
5.00 to 6.00

$$$$
>  <Compound>
CNC(=O)c1c(-c2ccc(F)cc2)oc2ccc(-c3cccc(S(=O)(=O)NC(C)(C)C)c3)cc12

>  <Test Target>
HCV NS5B RdRp genotype 1b (Hepatitis C virus genotype 1b)

>  <pIC50>
< 5.40

$$$$
>  <Compound>
CNC(=O)c1c(-c2ccc(F)cc2)oc2ccc(-c3cccc(C(=O)NCCNC(C)=O)c3)cc12

>  <Test Target>
HCV NS5B RdRp genotype 1b (Hepatitis C virus genotype 1b)

>  <pIC50>
5.00 to 6.00

$$$$
>  <Compound>
CNC(=O)c1c(-c2ccc(F)cc2)oc2ccc(-c3cccc(C(=O)OC(C)(C)C)c3)cc12

>  <Test Target>
HCV NS5B RdRp genotype 1b (Hepatitis C virus genotype 1b)

>  <pIC50>
5.00 to 6.00

$$$$
>  <Compound>
CNC(=O)c1c(-c2ccc(F)cc2)oc2cc(N)c(-c3cccc(C(=O)NC4(c5ccccc5)CC4)c3)cc12

>  <Test Target>
HCV NS5B RdRp genotype 1b (Hepatitis C virus genotype 1b)

>  <pIC50>
> 6.60

$$$$
>  <Compound>
CNC(=O)c1c(-c2ccc(F)cc2)oc2ccc(-c3cccc(C(=O)N4CCN(C)CC4)c3)cc12

>  <Test Target>
HCV NS5B RdRp genotype 1b (Hepatitis C virus genotype 1b)

>  <pIC50>
< 5.00

$$$$
>  <Compound>
CNC(=O)c1c(-c2ccc(F)cc2)oc2ccc(-c3cccc(C(=O)Nc4cccc(O)c4)c3)cc12

>  <Test Target>
HCV NS5B RdRp genotype 1b (Hepatitis C virus genotype 1b)

>  <pIC50>
5.00 to 6.00

$$$$
>  <Compound>
CNC(=O)c1c(-c2ccc(F)cc2)oc2ccc(-c3cccc(C(=O)NCc4cccnc4)c3)cc12

>  <Test Target>
HCV NS5B RdRp genotype 1b (Hepatitis C virus genotype 1b)

>  <pIC50>
> 6.60

$$$$
>  <Compound>
CNC(=O)c1c(-c2ccc(F)cc2)oc2ccc(-c3ccc(OC4CCCCO4)cc3)cc12 (centres unmarked)

>  <Test Target>
HCV NS5B RdRp genotype 1b (Hepatitis C virus genotype 1b)

>  <pIC50>
< 5.00

$$$$
>  <Compound>
CNC(=O)c1c(-c2ccc(F)cc2)oc2ccc(-c3cccc(C(=O)N[C@H]4C[C@@H]4c4ccccc4)c3)cc12

>  <Test Target>
HCV NS5B RdRp genotype 1b (Hepatitis C virus genotype 1b)

>  <pIC50>
< 6.40

$$$$
>  <Compound>
CNC(=O)c1c(-c2ccc(F)cc2)oc2ccc(-c3cccc(C(=O)NC4(c5ccc(F)cc5)CC4)c3)cc12

>  <Test Target>
HCV NS5B RdRp genotype 1b (Hepatitis C virus genotype 1b)

>  <pIC50>
> 6.60

$$$$
>  <Compound>
CNC(=O)c1c(-c2ccc(F)cc2)oc2ccc(-c3cnc(OC)c(F)c3)cc12

>  <Test Target>
HCV NS5B RdRp genotype 1b (Hepatitis C virus genotype 1b)

>  <pIC50>
< 5.00

$$$$
>  <Compound>
CNC(=O)c1c(-c2ccc(F)cc2)oc2ccc(-c3cccc(C(=O)NS(=O)(=O)C(C)(C)C)c3)cc12

>  <Test Target>
HCV NS5B RdRp genotype 1b (Hepatitis C virus genotype 1b)

>  <pIC50>
> 6.60

$$$$
>  <Compound>
CNC(=O)c1c(-c2ccc(F)cc2)oc2ccc(-c3cccc(C(=O)NC(C)CCc4ccccc4)c3)cc12 (centres unmarked)

>  <Test Target>
HCV NS5B RdRp genotype 1b (Hepatitis C virus genotype 1b)

>  <pIC50>
6.00 to 6.60

$$$$
>  <Compound>
CNC(=O)c1c(-c2ccc(F)cc2)oc2ccc(-c3cccc(C(=O)Nc4ccc(OC)cc4)c3)cc12

>  <Test Target>
HCV NS5B RdRp genotype 1b (Hepatitis C virus genotype 1b)

>  <pIC50>
> 6.60

$$$$
